# TARGET OR SYSTEM: human recombinant HDAC1 (Homo sapiens)
# Sequence (Q13547 whole entry): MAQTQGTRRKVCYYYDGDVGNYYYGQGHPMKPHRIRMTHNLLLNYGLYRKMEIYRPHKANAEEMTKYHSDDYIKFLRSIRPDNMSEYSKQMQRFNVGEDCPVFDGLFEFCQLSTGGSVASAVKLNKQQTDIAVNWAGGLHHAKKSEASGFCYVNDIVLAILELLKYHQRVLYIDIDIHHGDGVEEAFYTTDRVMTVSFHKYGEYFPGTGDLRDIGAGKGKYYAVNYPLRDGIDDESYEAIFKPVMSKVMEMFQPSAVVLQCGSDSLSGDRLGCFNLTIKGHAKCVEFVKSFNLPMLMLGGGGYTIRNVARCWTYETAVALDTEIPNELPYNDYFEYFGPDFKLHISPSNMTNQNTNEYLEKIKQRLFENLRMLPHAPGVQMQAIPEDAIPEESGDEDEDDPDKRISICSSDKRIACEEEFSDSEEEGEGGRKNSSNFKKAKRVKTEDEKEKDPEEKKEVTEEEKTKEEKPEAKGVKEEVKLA
# PROTOCOL SUMMARY: HDAC enzyme activity inhibition assay (HDAC Fluorimetric Drug Discovery Kit), HDAC1
# ASSAY CONTEXT: human recombinant HDAC1, Fluor de Lys-SIRT1 substrate, 30° C. 60 minutes
PROPERTY MEASURED: IC50

Study these solved cases before continuing.
                                   molecule                        target_or_system  property_measured  obs_value
0  CCCCN1CCC(N2CC(F)(C(=O)N(Cc3ccc(-c4nnc(C(F)F)o4)cn3)c3ccccc3)C2)CC1 [Compound 3113]  human recombinant HDAC1 (Homo sapiens)               IC50    > 50 µM
1  O=C(N(Cc1ccc(-c2nnc(C(F)F)o2)cn1)c1ccccc1)C1(F)CCN(C2CCC2)CC1 [Compound 2953]  human recombinant HDAC1 (Homo sapiens)               IC50      44 µM
2  O=C(N(Cc1ccc(-c2nnc(C(F)F)o2)cn1)c1ccccc1)C1(F)CN(C2CCOCC2)C1 [Compound 3000]  human recombinant HDAC1 (Homo sapiens)               IC50    > 50 µM
3  CC(C)N1CCC(F)(C(=O)N(Cc2ccc(-c3nnc(C(F)F)o3)cn2)c2cccc(F)c2)CC1 [Compound 2970]  human recombinant HDAC1 (Homo sapiens)               IC50    > 50 µM
4  CN1CC(N2CC(F)(C(=O)N(Cc3ccc(-c4nnc(C(F)F)o4)cn3)c3cccc(F)c3)C2)C1 [Compound 3219]  human recombinant HDAC1 (Homo sapiens)               IC50    > 50 µM

Known value: human recombinant HDAC1 (Homo sapiens) IC50 of the molecule CCC(=O)N1CC(F)(C(=O)N(Cc2ccc(-c3nnc(C(F)F)o3)cc2F)c2ccccc2)C1 [Compound 3433] equals 38.5 µM

Known value: human recombinant HDAC1 (Homo sapiens) IC50 of the molecule CN1CC(N2CC(F)(C(=O)N(Cc3ccc(-c4nnc(C(F)F)o4)cn3)c3ccccc3)C2)C1 [Compound 3105] equals > 50 µM

Known value: human recombinant HDAC1 (Homo sapiens) IC50 of the molecule CN(C)CCC(=O)N1CC(F)(C(=O)N(Cc2ccc(-c3nnc(C(F)F)o3)cn2)c2ccccc2)C1 [Compound 3006] equals > 50 µM

Known value: human recombinant HDAC1 (Homo sapiens) IC50 of the molecule CCC(=O)N1CCC(F)(C(=O)N(Cc2ccc(-c3nnc(C(F)F)o3)cc2F)c2ccccc2)CC1 [Compound 3439] equals > 50 µM

Known value: human recombinant HDAC1 (Homo sapiens) IC50 of the molecule O=C(N(Cc1ccc(-c2nnc(C(F)F)o2)cn1)c1ccccc1)C1(F)CCN(C2CCCC2)CC1 [Compound 2996] equals 24.9 µM

Known value: human recombinant HDAC1 (Homo sapiens) IC50 of the molecule CC(C)CN1CC(F)(C(=O)N(Cc2ccc(-c3nnc(C(F)F)o3)cn2)c2ccccc2)C1 [Compound 3004] equals 26.1 µM

Known value: human recombinant HDAC1 (Homo sapiens) IC50 of the molecule O=C(N(Cc1ccc(-c2nnc(C(F)F)o2)cn1)c1cccc(F)c1)C1(F)CN(C2CCC2)C1 [Compound 3049] equals 21.6 µM

Known value: human recombinant HDAC1 (Homo sapiens) IC50 of the molecule O=C(N(Cc1ccc(-c2nnc(C(F)F)o2)cc1F)c1ccccc1)C1(F)CCN(C2CCC2)CC1 [Compound 2868] equals > 20 µM

Known value: human recombinant HDAC1 (Homo sapiens) IC50 of the molecule O=C(N(Cc1ccc(-c2nnc(C(F)F)o2)cn1)c1cccc(F)c1)C1(F)CN(C2CN(C3CCC3)C2)C1 [Compound 3394] equals > 50 µM

Known value: human recombinant HDAC1 (Homo sapiens) IC50 of the molecule CC(C)N1CCC(N2CC(F)(C(=O)N(Cc3ccc(-c4nnc(C(F)F)o4)cn3)c3cccc(F)c3)C2)CC1 [Compound 3404] equals 25.4 µM

Known value: human recombinant HDAC1 (Homo sapiens) IC50 of the molecule COCCC(=O)N1CC(F)(C(=O)N(Cc2ccc(-c3nnc(C(F)F)o3)cn2)c2cccc(F)c2)C1 [Compound 3167] equals > 50 µM

Known value: human recombinant HDAC1 (Homo sapiens) IC50 of the molecule O=C(N(Cc1ccc(-c2nnc(C(F)F)o2)cn1)c1cccc(F)c1)C1(F)CN(C2CCCCC2)C1 [Compound 3053] equals > 50 µM

Known value: human recombinant HDAC1 (Homo sapiens) IC50 of the molecule CN1CCC(N2CC(F)(C(=O)N(Cc3ccc(-c4nnc(C(F)F)o4)cn3)c3ccccc3)C2)CC1 [Compound 3110] equals > 50 µM
